Attribution: patent US20250042994A1

Target: T1, human CD19 on CHO-K1-human CD19 cells (human, UniProt P15391 20-556)
T1 construct: whole, on cells; also called CHO-K1-human CD19-2C8
T1 sequence (looked up): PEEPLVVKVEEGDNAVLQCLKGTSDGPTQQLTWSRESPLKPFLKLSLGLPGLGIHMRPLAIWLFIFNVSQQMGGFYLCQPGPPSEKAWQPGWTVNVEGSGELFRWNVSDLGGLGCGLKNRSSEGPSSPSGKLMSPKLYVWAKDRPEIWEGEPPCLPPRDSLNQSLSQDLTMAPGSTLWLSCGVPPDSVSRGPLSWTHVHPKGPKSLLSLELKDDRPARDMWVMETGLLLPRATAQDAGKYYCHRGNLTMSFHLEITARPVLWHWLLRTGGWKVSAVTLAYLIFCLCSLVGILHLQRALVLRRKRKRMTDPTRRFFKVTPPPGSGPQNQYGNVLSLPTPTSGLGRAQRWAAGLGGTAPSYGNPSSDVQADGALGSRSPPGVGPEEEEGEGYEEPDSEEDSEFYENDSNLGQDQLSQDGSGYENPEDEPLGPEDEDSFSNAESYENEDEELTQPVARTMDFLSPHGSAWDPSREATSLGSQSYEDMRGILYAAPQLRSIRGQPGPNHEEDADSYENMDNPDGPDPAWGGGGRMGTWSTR
Assay: FACS on CHO-K1-human CD19 cells
Measured Endpoint: Maximum mean fluorescence intensity
Answer with the value's number alone.

get_value(item= F4.180.1 (antibody, human IgG1, V domains shown, human-murine chimeric antibody, human IgG1) VH: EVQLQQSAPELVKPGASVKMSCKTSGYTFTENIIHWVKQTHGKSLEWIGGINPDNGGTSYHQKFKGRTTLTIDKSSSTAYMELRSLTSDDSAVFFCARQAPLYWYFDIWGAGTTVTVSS VL: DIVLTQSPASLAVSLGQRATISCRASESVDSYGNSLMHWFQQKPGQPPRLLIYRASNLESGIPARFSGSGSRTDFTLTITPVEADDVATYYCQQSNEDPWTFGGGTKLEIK , readout=Maximum mean fluorescence intensity) returns 49600
